Data provenance is the supplement of paper PMC6522484.

Tested on: SW480
Assay: cell viability (CellTiter-Glo) relative to plate median (fraction of plate median); higher = more viable cells
Conditions: 5 µM; treatment time 24 h; reporter: 7TFP
Record form. Attribute: cell viability. Fill in for each entry.
Would you mind answering with just the numeric figure?

## Input Please tell me the measured cell viability for CCOC(=O)n1ccn(C)c1=S ; system: SW480.
## Output 1.01

## Input # lookup: SW480 cell viability, key = O=C(CCCN1CC=C(n2c(=O)[nH]c3ccccc32)CC1)c1ccc(F)cc1
## Output 0.994

## Input Under SW480, report cell viability for C=C[C@@]1(C)CC(=O)[C@]2(O)[C@@]3(C)[C@@H](O)CCC(C)(C)[C@@H]3[C@H](O)[C@H](OC(C)=O)[C@@]2(C)O1
## Output 1.12

## Input Tell me cell viability of CS(=O)(=O)CCCCN=C=S when tested on SW480.
## Output 0.83

## Input Report cell viability on SW480 for this entry: CO[C@H]1C[C@H](O[C@H]2[C@H](C)[C@@H](O[C@@H]3O[C@H](C)C[C@H](N(C)C)[C@H]3O)[C@@H](C)C[C@@]3(CO3)C(=O)[C@H](C)[C@@H](O)[C@@H](C)[C@@H](C)OC(=O)[C@@H]2C)O[C@@H](C)[C@@H]1O
## Output 0.915

## Input # assay system SW480: give cell viability of CC(=O)c1ccc[nH]1
## Output 1.02

## Input # return cell viability of CC(C)=CCC1=C(O)C(=O)c2ccccc2C1=O (system: SW480)
## Output 1.02

## Input Fill in cell viability for CCOC(=O)[C@H](CCc1ccccc1)N[C@H]1CCc2ccccc2N(CC(=O)O)C1=O tested with SW480.
## Output 1.02

## Input Report cell viability on SW480 for this entry: CCCCCCCCCCCC1=C(O)C(=O)C=C(O)C1=O
## Output 0.967

## Input Report measured cell viability on SW480; entry: C=C[C@@H](C1=CC(=O)C(OC)=C(OC)C1=O)c1ccccc1
## Output 1.08

## Input // fetch cell viability for O=C(C=Cc1ccc(O)cc1)c1ccccc1O ; system: SW480
## Output 1.02

## Input Report cell viability under test system SW480 for Cc1cc(=O)n(-c2ccccc2)n1C .
## Output 1.01

## Input GET cell viability | system: SW480 | item: N=C1C=CC(=C(c2ccc(N)cc2)c2ccc(N)cc2)C=C1
## Output 0.829

## Input Report measured cell viability on SW480; entry: CC1=Nc2ccc(Cl)cc2S(=O)(=O)N1
## Output 0.975

## Input Enter measured cell viability, system SW480, for the compound shown: COc1ccc(/C=C/C(=O)O)cc1OC
## Output 0.951

## Input For SW480, give cell viability of the listed compound: CCN(CC)CC(=O)Nc1c(C)cccc1C
## Output 1.02

## Input Give measured cell viability for CC(=O)C1=C(O)C=C2Oc3c(C(C)=O)c(O)c(C)c(O)c3C2(C)C1=O (stereo in doubt) (SW480).
## Output 0.968

## Input Provide SW480 cell viability reading for C#C[C@]1(OC(C)=O)CC[C@H]2[C@@H]3CCC4=CC(=NO)CC[C@@H]4[C@H]3CC[C@@]21CC (mixture of isomers) .
## Output 0.98

## Input Quote cell viability with test system SW480 for CC(=O)/C=C\[C@@H]1[C@@]2(C)CCCC(C)(C)C2CC[C@@]1(C)O (some centres undefined)
## Output 1.05

## Input Report cell viability under test system SW480 for CC(C)NCC(O)COc1ccc(COCCOC(C)C)cc1 (centres undefined) .
## Output 0.933

## Input Look up SW480 data: cell viability of CC(C)c1c(O)ccc2c1CCC1[C@@](C)(C=O)CCC[C@]21C (some centres undefined) , then report it.
## Output 0.965

## Input State measured cell viability of the compound CC1(C)S[C@@H]2[C@H](NC(=O)C(C(=O)O)c3ccccc3)C(=O)N2[C@H]1C(=O)O (some centres undefined) with SW480.
## Output 0.941

## Input Fetch value of cell viability on SW480 for CC1CCc2cc(F)cc3c(=O)c(C(=O)O)cn1c23 (centres undefined) .
## Output 0.972

## Input Report its cell viability with SW480 as the test system: COC(=O)[C@H](c1ccccc1Cl)N1CCc2sccc2C1
## Output 1.07

## Input State cell viability (SW480) of CCCC(=O)O[C@]1(C(=O)CO)CC[C@H]2[C@@H]3CCC4=CC(=O)CC[C@]4(C)[C@H]3[C@@H](O)C[C@@]21C .
## Output 1.02

## Input State cell viability on SW480. Entry: COc1cc(C2Oc3cc([C@H]4Oc5cc(O)cc(O)c5C(=O)[C@@H]4O)ccc3OC2CO)ccc1O (some centres undefined)
## Output 1.02

## Input Supply cell viability measured with SW480 for N=C(N)NCCN1CCCCCCC1 .
## Output 1.04

## Input Provide cell viability, system SW480, entry CCCC(CCC)C(=O)O
## Output 0.973

## Input Report cell viability on SW480 for this entry: CC(C)CC1NC(=O)C(NC(=O)c2ncccc2O)C(C)OC(=O)C(c2ccccc2)N(C)C(=O)C(C)NC(=O)C(C(C)C(C)C)N(C)C(=O)CN(C)C(=O)C2CCCN2C1=O (single isomer, unassigned; isomere) [Neoviridogrisein II (Isomere)]
## Output 1.02

## Input State, for SW480, measured cell viability of the compound listed here: CS(=O)(=O)OCCCCOS(C)(=O)=O
## Output 1.06

## Input State cell viability on SW480. Entry: CC(=O)O[C@@H]1C[C@H]2C(C)(C)C(=O)CC[C@]2(C)[C@H]2CC[C@@]3(C)[C@H](c4ccoc4)OC(=O)[C@H]4O[C@]43[C@@]21C
## Output 1.01

## Input Please report the measured cell viability for CC1=C(/C=C/C(C)=C/C=C/C(C)=C/C=C/C=C(C)/C=C/C=C(C)/C=C/C2=C(C)C(=O)CCC2(C)C)C(C)(C)CCC1=O [CANTHAXANTHIN (euglenanone)] tested on SW480.
## Output 1.06

## Input Please look at CC(=O)C[C@@H]1C[C@H](O)c2c(O)cccc2C1=O and tell me its recorded cell viability on SW480.
## Output 1.05

## Input Please indicate recorded cell viability of CC1(C)C(=O)[C@H]2C[C@]3(O)C4=CC(=O)O[C@@H](c5ccoc5)[C@@]4(C)CCC3[C@](C)(C2=O)[C@H]1CC(=O)O (some centres undefined) measured with SW480.
## Output 1.05

## Input Provide cell viability, tested on SW480, for CC(C)NNC(=O)c1ccncc1 .
## Output 1

## Input Provide SW480 cell viability reading for CCCCCC1C(=O)CCC1CC(=O)OC (centres undefined) .
## Output 1.02

## Input Specify cell viability for NC(=O)c1cnccn1 , system SW480.
## Output 1.02

## Input Write cell viability of Cc1cc(O)c2c3c(ccc2c1)C(=O)c1c(O)cccc1C3=O ; system used: SW480
## Output 0.972

## Input Report cell viability on SW480 for this entry: Clc1ccc(CSC(Cn2ccnc2)c2ccc(Cl)cc2Cl)cc1 (centres undefined)
## Output 0.954
